Measured OD value values are reported for all entries that follow.
- system: T1, recombinant human regenerating islet-derived protein 1α (REG1A) (human, UniProt P05451 23-166, limits assumed)
- T1 construct: also called recombinant human REG1A; recombinant REG1A
- T1 sequence (looked up): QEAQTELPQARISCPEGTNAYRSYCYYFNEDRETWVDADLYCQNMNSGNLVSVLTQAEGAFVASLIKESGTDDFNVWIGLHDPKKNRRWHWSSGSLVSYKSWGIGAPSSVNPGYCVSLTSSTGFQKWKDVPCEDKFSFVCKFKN
- protocol details: sandwich ELISA; capture 21B11D2; REG1A 1.23 ng/mL
Respond numerically; units are OD and should not be typed.

Examples with their reported OD value follow.
{"binder": "antibody 11D11B11 (antibody, mouse IgG2a, kappa, V domains shown, Mouse monoclonal from hybridoma, stated mouse IgG1/Kappa; Used unlabelled as capture and biotin-labelled as detection antibody; also called 11D11B11-biotin) VH: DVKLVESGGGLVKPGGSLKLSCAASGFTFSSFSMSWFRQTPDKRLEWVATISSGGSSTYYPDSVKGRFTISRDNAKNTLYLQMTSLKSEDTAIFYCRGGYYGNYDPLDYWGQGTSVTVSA VL: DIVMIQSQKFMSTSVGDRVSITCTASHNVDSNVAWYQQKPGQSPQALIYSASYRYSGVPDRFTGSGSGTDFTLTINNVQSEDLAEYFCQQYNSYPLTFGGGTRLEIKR", "unit": "OD", "OD value": 0.089}
{"binder": "antibody 21B11D2 (antibody, mouse IgG2b, kappa, V domains shown, Mouse monoclonal from hybridoma, stated mouse IgG1/Kappa; Used unlabelled as capture and biotin-labelled as detection antibody; also called 21B11D2-biotin) VH: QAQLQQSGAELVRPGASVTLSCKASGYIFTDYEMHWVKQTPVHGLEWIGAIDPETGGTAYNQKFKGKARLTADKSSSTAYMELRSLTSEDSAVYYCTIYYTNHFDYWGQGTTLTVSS VL: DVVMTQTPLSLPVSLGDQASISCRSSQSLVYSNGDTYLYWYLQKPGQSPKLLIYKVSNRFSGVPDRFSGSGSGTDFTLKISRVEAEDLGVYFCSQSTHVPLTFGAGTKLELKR", "unit": "OD", "OD value": 0.066}
{"binder": "antibody 4H8F1 (antibody, V domains shown, Mouse monoclonal from hybridoma, stated mouse IgG1/Kappa; also called 4H8F1-biotin; Antibody 1) VH: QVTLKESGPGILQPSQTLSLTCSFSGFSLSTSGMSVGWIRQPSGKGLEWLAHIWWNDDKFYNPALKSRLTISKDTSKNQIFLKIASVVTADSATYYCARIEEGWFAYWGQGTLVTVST VL: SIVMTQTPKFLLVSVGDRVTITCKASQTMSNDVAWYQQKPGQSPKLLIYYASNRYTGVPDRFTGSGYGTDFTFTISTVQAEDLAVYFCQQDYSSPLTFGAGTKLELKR", "unit": "OD", "OD value": 0.078}

Consider the record given below.
The recorded OD value for antibody 12F12A10 (antibody, V domains shown, Mouse monoclonal from hybridoma, stated mouse IgG1/Kappa; also called 12F12A10-biotin; Antibody 2) VH: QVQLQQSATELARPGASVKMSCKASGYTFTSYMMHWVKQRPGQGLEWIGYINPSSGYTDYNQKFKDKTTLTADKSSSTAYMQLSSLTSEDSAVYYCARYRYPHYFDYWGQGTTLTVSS VL: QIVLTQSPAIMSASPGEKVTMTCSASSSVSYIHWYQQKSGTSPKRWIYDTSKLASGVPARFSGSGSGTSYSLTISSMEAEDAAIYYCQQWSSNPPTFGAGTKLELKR is 3.9
